- Experimental target: ratBuChE (Rattus norvegicus, UniProt Q9JKC1)
- Construct: BuChE from rat serum or human serum (Sigma Co.); from tissue; host or cells: rat serum
- Sequence (Q9JKC1 24-597): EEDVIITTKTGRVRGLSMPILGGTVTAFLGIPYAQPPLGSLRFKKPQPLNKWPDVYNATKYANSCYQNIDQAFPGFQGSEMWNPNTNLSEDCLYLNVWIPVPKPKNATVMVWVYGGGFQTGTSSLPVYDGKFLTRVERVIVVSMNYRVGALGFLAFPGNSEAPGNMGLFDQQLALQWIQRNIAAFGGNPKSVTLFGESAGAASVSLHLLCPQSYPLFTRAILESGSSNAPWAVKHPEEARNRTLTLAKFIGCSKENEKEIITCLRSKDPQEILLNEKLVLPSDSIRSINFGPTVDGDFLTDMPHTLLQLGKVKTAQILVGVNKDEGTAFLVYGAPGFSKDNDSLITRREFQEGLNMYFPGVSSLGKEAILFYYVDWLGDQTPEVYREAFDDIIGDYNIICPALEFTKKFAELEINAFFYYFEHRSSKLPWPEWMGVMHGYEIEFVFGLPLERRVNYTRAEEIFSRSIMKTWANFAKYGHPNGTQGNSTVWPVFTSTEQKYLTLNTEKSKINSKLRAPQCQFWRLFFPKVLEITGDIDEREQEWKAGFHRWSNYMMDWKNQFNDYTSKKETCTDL
- Test protocol: ratBuChE inhibition, modified Ellman's method
- Type: biochemical
Reported IC50 values for the following compounds.
Supply the numeric figure in µM, leaving out any unit text.

Compound	Result value
O=C1CC(c2ccc(OCCCN3CCc4ccccc4C3)cc2)Oc2cc(OCCCN3CCc4ccccc4C3)cc(O)c21 (centres unmarked)	20.2
CCN(CCCCOc1ccc(-c2cc(=O)c3c(O)cc(OCCCCN(CC)Cc4ccccc4)cc3o2)cc1)Cc1ccccc1 [Compound 10h]	12.9
O=c1cc(-c2ccc(OCCCCCN3CCC(CCCc4ccccc4)CC3)cc2)oc2cc(OCCCCCN3CCC(CCCc4ccccc4)CC3)cc(O)c12 [Compound 10o]	16.1

## Task Name the recorded IC50 of the item O=c1cc(-c2ccc(OCCCCCCN3CCC(Cc4ccccc4)CC3)cc2)oc2cc(OCCCCCCN3CCC(Cc4ccccc4)CC3)cc(O)c12 [Compound 10s] in your answer.
## Result 16.9

## Task Name the recorded IC50 of the item CCN(CCCCCOc1ccc(-c2cc(=O)c3c(O)cc(OCCCCCN(CC)Cc4ccccc4OC)cc3o2)cc1)Cc1ccccc1OC [Compound 10l] in your answer.
## Result 14.4
